molecular target: UniProt:P07333; test: KINOMEscan competition binding assay for CSF1R; set-up: DNA tag for qPCR (not a peptide); host or cells: E. coli/T7 phage or HEK-293; settings: @ 0.1 uM; read-out: CSF1R kinase binding activity, Range

Compound | inhibition at 0.1 µM
COc1cc2nccc(Oc3ccc(NC(=O)c4nn(C5CCNC5)cc4OCC(F)(F)F)nn3)c2cc1OC (stereo not drawn) | < 50%
COc1cc2nccc(Oc3ccc(NC(=O)c4nn(CC5CCCC5)cc4OCC(F)(F)F)nc3)c2cc1OC | ≥ 80%
COCCOc1cn(C2CC2)nc1C(=O)Nc1ccc(Oc2ccnc3cc(OC)c(OC)cc23)cn1 | ≥ 80%
CNCCn1cc(OCC(F)(F)F)c(C(=O)Nc2ccc(Oc3ccnc4cc(OC)c(OC)cc34)nc2)n1 | < 50%
COCCOc1cn(C2CC2)nc1C(=O)Nc1ccc(Oc2ccnc3cc(OC)c(OC)cc23)nn1 | 50 to 80%
COc1cc2nccc(Oc3ccc(NC(=O)c4nn(C5CCOC5)cc4OCC(F)(F)F)cn3)c2cc1OC (stereo not drawn) | < 50%
COc1cc2nccc(Oc3ccc(NC(=O)c4nn(CC(C)=O)cc4OCC(F)(F)F)nc3)c2cc1OC | ≥ 80%
COc1cc2nccc(Oc3ccc(NC(=O)c4nn(C5CC5)c(C(C)=O)c4OCC(F)(F)F)nc3)c2cc1OC | 50 to 80%
CNCCOc1cn(C2CC2)nc1C(=O)Nc1ccc(Oc2ccnc3cc(OC)c(OC)cc23)cn1 | < 50%
CCCn1cc(OCCOC)c(C(=O)Nc2ccc(Oc3ccnc4cc(OC)c(OC)cc34)cn2)n1 | ≥ 80%
COc1cc2nccc(Oc3ccc(NC(=O)c4nn(CC(C)O)cc4OCC(F)(F)F)cc3)c2cc1OC (stereo not drawn) | 50 to 80%
CCCn1cc(OCC2CNC2)c(C(=O)Nc2ccc(Oc3ccnc4cc(OC)c(OC)cc34)cn2)n1 | 50 to 80%
COc1cc2nccc(Oc3ccc(NC(=O)c4nn(C5CCN(C)C5)cc4OCC(F)(F)F)nn3)c2cc1OC (stereo not drawn) | ≥ 80%
COc1cc2nccc(Oc3ccc(NC(=O)c4nn(C5CCOC5)cc4OCC(F)(F)F)cc3C)c2cc1OC (stereo not drawn) | 50 to 80%
COc1cc2nccc(Oc3ccc(NC(=O)c4nn(CC5CCOC5)cc4OCC(F)(F)F)nc3)c2cc1OC (stereo not drawn) | ≥ 80%

###

Catalogue of IC50 readings, one per entry.
molecular target: CSF1R (Homo sapiens); assay: Cellular CSF1R inhibition ELISA (p-CSF1R, M-CSF-induced) using THP-1 cells
Sequence (P07333 20-972): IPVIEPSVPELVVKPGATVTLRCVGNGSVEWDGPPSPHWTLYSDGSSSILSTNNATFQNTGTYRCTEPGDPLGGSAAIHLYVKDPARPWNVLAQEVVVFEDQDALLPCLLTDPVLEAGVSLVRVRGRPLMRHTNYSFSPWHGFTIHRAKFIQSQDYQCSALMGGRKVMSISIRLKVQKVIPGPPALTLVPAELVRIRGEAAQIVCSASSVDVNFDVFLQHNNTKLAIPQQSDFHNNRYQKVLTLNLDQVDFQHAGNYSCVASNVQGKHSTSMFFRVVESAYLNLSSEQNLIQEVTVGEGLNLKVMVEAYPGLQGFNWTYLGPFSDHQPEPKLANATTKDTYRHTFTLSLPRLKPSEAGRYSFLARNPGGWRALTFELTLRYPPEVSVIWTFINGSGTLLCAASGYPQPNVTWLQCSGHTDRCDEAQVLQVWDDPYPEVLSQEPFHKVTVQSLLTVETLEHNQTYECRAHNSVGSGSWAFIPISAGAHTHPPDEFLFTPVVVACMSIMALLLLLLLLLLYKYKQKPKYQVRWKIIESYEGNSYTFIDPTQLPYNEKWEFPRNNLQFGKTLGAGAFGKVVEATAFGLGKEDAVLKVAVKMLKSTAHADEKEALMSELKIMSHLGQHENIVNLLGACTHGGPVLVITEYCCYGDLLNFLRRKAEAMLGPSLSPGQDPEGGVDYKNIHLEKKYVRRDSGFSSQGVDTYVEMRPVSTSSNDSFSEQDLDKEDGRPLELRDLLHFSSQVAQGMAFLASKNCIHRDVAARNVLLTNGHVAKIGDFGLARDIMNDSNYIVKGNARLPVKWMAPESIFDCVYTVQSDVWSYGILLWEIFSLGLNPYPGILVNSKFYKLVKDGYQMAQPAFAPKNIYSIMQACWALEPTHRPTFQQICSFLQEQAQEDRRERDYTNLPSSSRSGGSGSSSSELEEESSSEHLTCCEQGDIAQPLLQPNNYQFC

Molecule | IC50
COc1cc2nccc(Oc3ccc(NC(=O)c4nn(C)cc4OCC(F)(F)F)cc3C)c2cc1OC [Compound 37] | < 0.5 µM
CCCn1cc(OCC(F)(F)F)c(C(=O)Nc2ccc(Oc3ccnc4cc(OC)c(OC)cc34)cc2)n1 [Compound 38] | 0.5 to 1 µM
CNCCn1cc(OCC(F)(F)F)c(C(=O)Nc2ccc(Oc3ccnc4cc(OC)c(OC)cc34)nc2)n1 [Compound 137] | ≥ 1 µM
COc1cc2nccc(Oc3ccc(NC(=O)c4nn(C5CC5)cc4OC(C)C)nn3)c2cc1OC [Compound 147] | 0.5 to 1 µM
COc1cc2nccc(Oc3ccc(NC(=O)c4nn(C5CCNC5)cc4OCC(F)(F)F)cc3)c2cc1OC (stereo not shown) [Compound 86] | ≥ 1 µM
COc1cc2nccc(Oc3ccc(NC(=O)c4nn(CC(C)C)cc4OCC(F)(F)F)cn3)c2cc1OC [Compound 103] | ≥ 1 µM
COc1cc2nccc(Oc3ccc(NC(=O)c4nn(CC5CCCCC5)cc4OCC(F)(F)F)nc3)c2cc1OC [Compound 43] | < 0.5 µM
